Test system: OCI-AML2
Assay: cell viability relative to vehicle control; higher = less cytotoxic;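 note: after 48 h exposure read by CellTiter-Glo luminescence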
Details: 10 µM; SRSF2 genotype: P95H/wt
cell viability values for the molecules below.
Could you give me the number in %? Just the number is fine.

// worked examples, cell viability included
COc1ccccc1Oc1c(NS(=O)(=O)c2ccc(C(C)(C)C)cc2)nc(-c2ncccn2)nc1OCCO [Bosentan Hydrate] ... 112
Cn1cc(-c2ccncc2)c(-c2ccc(OCc3ccc4ccccc4n3)cc2)n1 ... 71.5
COc1cc(-c2cc(-c3cccc(O)c3)cnc2N)cc(OC)c1OC ... 83.5

Exam item: Would you mind telling me what cell viability value was observed for CC(C)c1cc2c(c(O)c1O)[C@@]13CCCC(C)(C)[C@@H]1C[C@@H]2OC3=O [Carnosol] ?
Marked response: 5.94

---

Tested on: MARIMO
Assay: cell viability relative to vehicle control; higher = less cytotoxic
Details: 10 µM; SRSF2 genotype: SRSF2 wt/wt
Lab note - cut at 90% for cell viability: Satisfied if strictly below, Not satisfied if not.

COc1cc2ncnc(Oc3cccc(NC(=O)Nc4cc(C(C)(C)C(F)(F)F)on4)c3)c2cc1OC ... Satisfied

Exam item: Criterion: cell viability strictly below 90%. Is it met by COc1cc2c(cc1O)CC[n+]1cc3c(OC)c(OC)ccc3cc1-2 [Jatrorrhizine chloride] ?
Marked response: Not satisfied

Exam item: Criterion: cell viability strictly below 90%. Is it met by CN1CCN(c2ccc(C(=O)Nc3n[nH]c4ccc(Cc5cc(F)cc(F)c5)cc34)c(NC3CCOCC3)c2)CC1 [Entrectinib (RXDX-101)] ?
Marked response: Satisfied

---

Tested on: OCI-AML2
Experiment: cell viability relative to vehicle control; higher = less cytotoxic
Details: 10 µM; SRSF2 genotype: wt/wt
Counter-ions that a name gives are not always drawn.
Lab note - cut at 80% for cell viability: Condition met if strictly below, Condition not met if not.

O=C(O)c1cc(=O)[nH]c(=O)[nH]1 ... Condition not met
COc1ccc(-c2nc(-c3cc(C(F)(F)F)cc(C(F)(F)F)c3)n(Cc3ccc(C(N)=O)cc3)c2-c2ccc(OC)cc2)cc1 ... Condition not met
OC[C@H]1O[C@@H](Oc2c(O)cc(O)cc2/C=C/c2ccc(O)cc2)[C@H](O)[C@@H](O)[C@@H]1O ... Condition not met
CO/N=C(\C(=O)N[C@@H]1C(=O)N2C(C(=O)[O-])=C(C[n+]3cccc4c3CCC4)CS[C@H]12)c1csc(N)n1 [Cefpirome sulfate] ... Condition not met

Moving on to another molecule below.
Exam item: Criterion: cell viability strictly below 80%. Is it met by COC1=CC(=O)c2ccccc2C1=O ?
Marked response: Condition met

---

cell viability values for the molecules below.
System: MOLM14
Test: cell viability relative to vehicle control; higher = less cytotoxic
Conditions: 10 µM; SRSF2 genotype: SRSF2 P95H/wt
Could you give me the number in %? Just the number is fine.

// worked examples, cell viability included
COC(=O)c1ccco1 [Methyl furan-2-carboxylate] ... 107
CCCC(C)NC(=O)c1ccc(Cl)c(Cl)c1 (stereo unspecified) ... 112
N#Cc1cccc(-c2c[nH]c3ncnc(N4CCOCC4)c23)c1 ... 96.8
CCOC(=O)C=P(c1ccccc1)(c1ccccc1)c1ccccc1 [Ethyl (triphenylphosphoranylidene) acetate] ... 84.5
CCOC(=O)NCCCC(=O)NCCc1ccccc1 ... 100

Exam item: Short answer please: cell viability, MOLM14, entry C[C@H](C[C@H](O)[C@H]1OC1(C)C)C1=C2C[C@H](O)[C@H]3[C@@]4(C)CCC(=O)C(C)(C)[C@@H]4CC[C@]3(C)[C@@]2(C)CC1
Marked response: 86.7

Exam item: Short answer please: cell viability, MOLM14, entry NC(=O)c1ccccn1 [Picolinamide]
Marked response: 101

Exam item: Short answer please: cell viability, MOLM14, entry CNC(=O)c1cc(Oc2ccc(NC(=O)Nc3cc(C(C)(C)C)nn3-c3ccc4ncccc4c3)c(F)c2)ccn1 [DCC-2036 (Rebastinib)]
Marked response: 1.63

Exam item: Short answer please: cell viability, MOLM14, entry Nc1cccc(-c2cc3c(Oc4cccc(O)c4)ncnc3[nH]2)c1
Marked response: 37.8

Exam item: Short answer please: cell viability, MOLM14, entry Cc1cc(Nc2ncc3c(n2)N(C)C(=O)N(c2cc(NC(=O)c4cccc(C(F)(F)F)c4)ccc2C)C3)n(C)n1 [Pluripotin (SC1)]
Marked response: 7.16

Exam item: Short answer please: cell viability, MOLM14, entry CC(C)c1nc(CN(C)C(=O)N[C@@H](CCN2CCOCC2)C(=O)N[C@H](CC[C@H](Cc2ccccc2)NC(=O)OCc2cncs2)Cc2ccccc2)cs1 [Cobicistat (GS-9350)]
Marked response: 94.3

---

cell viability values for the compounds below.
Tested on: K562
Experiment: cell viability relative to vehicle control; higher = less cytotoxic
Conditions: 10 µM; SRSF2 genotype: SRSF2 wt/wt
Could you give me the number in %? Just the number is fine.

// worked examples, cell viability included
CN1CC(O)c2cc(N=NC(N)=O)c(O)cc21 (stereo not given) ... 89.4
NC(=S)c1ccncc1 [Thioisonicotinamide] ... 98.9
CCC1=C(C)CN(C(=O)NCCc2ccc(S(=O)(=O)NC(=O)N[C@H]3CC[C@H](C)CC3)cc2)C1=O [Glimepiride] ... 93.7
C=C1CCC[C@]2(C)C[C@]3(O)OC(=O)C(C)=C3C[C@@H]12 [Atractylenolide III] ... 99.3
CNCCN(C)Cc1c[nH]nc1-c1ccc(O[C@H]2C[C@H](OCCC3CCOCC3)C2)cc1 ... 89.7
O=C1C2=C(CCN(Cc3ccccc3)C2)N2CCN=C2N1Cc1ccc(C(F)(F)F)cc1 ... 34
O=C(O)CCc1c[nH]c2ccccc12 ... 102
O=C(c1ccc(F)cc1)N1CCCC(c2nc(-c3ccc(F)cc3)no2)C1 (stereo not given) ... 76.6

Exam item: Would you mind telling me what cell viability value was observed for CC(=O)O[C@]1(C)CC[C@@]23C[C@H]1C(C)(C)[C@@H]2CC[C@H]3C [Cedryl acetate] ?
Marked response: 104

Exam item: Would you mind telling me what cell viability value was observed for Cc1ccc(-n2[nH]c(C)c(N=Nc3cccc(-c4cccc(C(=O)O)c4)c3O)c2=O)cc1C [Eltrombopag] ?
Marked response: 74.4

---

Tested on: MARIMO
Assay: cell viability relative to vehicle control; higher = less cytotoxic
Conditions: 10 µM; SRSF2 genotype: SRSF2 wt/wt
Where a name gives a salt, the structure may show the parent alone.
reported.property: cell viability (%)
Could you give me the number in %? Just the number is fine.

// worked examples, cell viability included
CCC1(c2c[nH]cn2)Cc2ccccc2C1 ... 85.9
CN1CCN(Cc2ccc(NC(=O)Nc3ccc(Oc4cc(NC(=O)C5CC5)ncn4)cc3)cc2C(F)(F)F)CC1 ... 1.13
C[C@H](CCC(=O)O)[C@H]1CC[C@H]2[C@@H]3CC[C@@H]4C[C@H](O)CC[C@]4(C)[C@H]3CC[C@]12C ... 113

Exam item: Would you mind telling me what cell viability value was observed for Nc1cc(N)c(N)cc1N ?
Marked response: 109

Exam item: Would you mind telling me what cell viability value was observed for COC(=O)Nc1nc2cc(C(=O)c3ccc(F)cc3)ccc2[nH]1 ?
Marked response: 12

Exam item: Would you mind telling me what cell viability value was observed for O=C(/C=C/c1ccccc1)OCc1ccccc1 [Benzyl cinnamate] ?
Marked response: 99.6

Exam item: Would you mind telling me what cell viability value was observed for C=C(C)C1CC=C(C=NO)CC1 (configuration not stated) ?
Marked response: 105

Exam item: Would you mind telling me what cell viability value was observed for CCCCCCCCCC(=O)OCC(COC(=O)CCCCCCCCC)OC(=O)CCCCCCCCC [Glyceryl tridecanoate] ?
Marked response: 114

Exam item: Would you mind telling me what cell viability value was observed for COc1ccccc1N1CCN(CCN2C(=O)CC3(CCCC3)CC2=O)CC1 [BMY 7378 Dihydrochloride] ?
Marked response: 106

---

Test system: OCI-AML2
Experiment: cell viability relative to vehicle control; higher = less cytotoxic
Details: 10 µM; SRSF2 genotype: wt/wt
Structures can show the parent of a compound that is named as a salt.
cell viability values for the compounds below.
Could you give me the number in %? Just the number is fine.

// worked examples, cell viability included
COc1cc2c(cc1OC)CN(C(=O)/C=C/c1c(-c3ccccc3)n(C)c3ncccc13)CC2 ... 49
C[C@@H](Oc1cc(-c2cnn(C3CCNCC3)c2)cnc1N)c1c(Cl)ccc(F)c1Cl ... 1.89
CCc1c2c(nc3ccc(OC(=O)N4CCC(N5CCCCC5)CC4)cc13)-c1cc3c(c(=O)n1C2)COC(=O)[C@]3(O)CC [Irinotecan HCl Trihydrate (Campto)] ... 2.87
COc1ccc(-c2oc3c(CC=C(C)C)c(O[C@@H]4O[C@H](CO)[C@@H](O)[C@H](O)[C@H]4O)cc(O)c3c(=O)c2O[C@@H]2O[C@@H](C)[C@H](O)[C@@H](O)[C@H]2O[C@@H]2O[C@@H](C)[C@H](O)[C@@H](O)[C@H]2O)cc1 ... 107
CNC(=O)c1ccc2cc([C@@]3(O)CCn4cncc43)ccc2c1 ... 104

Exam item: Would you mind telling me what cell viability value was observed for CCN(c1cc(-c2ccc(CN3CCOCC3)cc2)cc(C(=O)NCc2c(C)cc(C)[nH]c2=O)c1C)C1CCOCC1 [Tazemetostat (EPZ-6438)] ?
Marked response: 99.6

Exam item: Would you mind telling me what cell viability value was observed for O=C1NC(=O)C(=Cc2ccc(-c3ccc(F)cc3)o2)S1 (stereo in doubt) ?
Marked response: 95.8

Exam item: Would you mind telling me what cell viability value was observed for C[C@H](CCC(=O)NCCS(=O)(=O)O)[C@H]1CC[C@H]2[C@@H]3[C@@H](O)C[C@@H]4C[C@H](O)CC[C@]4(C)[C@H]3CC[C@]12C ?
Marked response: 114

Exam item: Would you mind telling me what cell viability value was observed for Cc1c(-c2ccnn2C)cc(C(=O)NCc2ccc(S(C)(=O)=O)cn2)c(=O)n1-c1cccc(C(F)(F)F)c1 ?
Marked response: 113

Values compiled from the supplement of paper PMC10981050.
